- target.entity: Mu-type opioid receptor (Rattus norvegicus, UniProt P33535)
- Sequence (P33535 whole entry): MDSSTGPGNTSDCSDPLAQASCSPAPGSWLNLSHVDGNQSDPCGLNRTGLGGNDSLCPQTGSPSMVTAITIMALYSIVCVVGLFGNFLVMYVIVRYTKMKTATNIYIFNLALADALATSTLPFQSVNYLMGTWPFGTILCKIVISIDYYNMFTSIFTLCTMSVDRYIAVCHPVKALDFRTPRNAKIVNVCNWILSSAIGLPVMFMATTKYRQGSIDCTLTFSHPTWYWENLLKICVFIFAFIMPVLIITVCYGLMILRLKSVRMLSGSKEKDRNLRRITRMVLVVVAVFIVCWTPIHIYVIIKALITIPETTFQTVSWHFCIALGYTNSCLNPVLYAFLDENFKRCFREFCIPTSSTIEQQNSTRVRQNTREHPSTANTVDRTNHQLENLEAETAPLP
- assay.text: Agonist activity at rat MOR transfected in rat C6 cell membranes after 1 hr by [35S]GTPgammaS assay
Reported log10 of EC50 values follow for various molecules
Log10 applied to EC50; unit prior to transform: nM.

compound: COC(=O)N1CC[C@@H](NC(=O)[C@@H](N)Cc2c(C)cc(O)cc2C)c2cc(Cc3ccc4ccccc4c3)ccc21
log10 of EC50: -0.41

Form entry - test system: Mu-type opioid receptor (Rattus norvegicus, UniProt P33535); read-out: log10 of EC50; molecule: "CCC(=O)N1CC[C@@H](NC(=O)[C@@H](N)Cc2c(C)cc(O)cc2C)c2cc(Cc3ccccc3)ccc21"
0.59

Form entry - test system: Mu-type opioid receptor (Rattus norvegicus, UniProt P33535); read-out: log10 of EC50; molecule: "CCOC(=O)CN1CC[C@@H](NC(=O)[C@@H](N)Cc2c(C)cc(O)cc2C)c2cc(Cc3ccccc3)ccc21"
0.71

Form entry - test system: Mu-type opioid receptor (Rattus norvegicus, UniProt P33535); read-out: log10 of EC50; molecule: "Cc1cc(O)cc(C)c1C[C@H](N)C(=O)N[C@@H]1CCN(C(=O)c2ccccc2)c2ccc(Cc3ccccc3)cc21"
0.41

Form entry - test system: Mu-type opioid receptor (Rattus norvegicus, UniProt P33535); read-out: log10 of EC50; molecule: "Cc1cc(O)cc(C)c1C[C@H](N)C(=O)N[C@@H]1CCN(C(=O)C(C)C)c2ccc(Cc3ccccc3)cc21"
0.98

Form entry - test system: Mu-type opioid receptor (Rattus norvegicus, UniProt P33535); read-out: log10 of EC50; molecule: "Cc1cc(O)cc(C)c1C[C@H](N)C(=O)N[C@@H]1CCN(CC(N)=O)c2ccc(Cc3ccccc3)cc21"
0.18

Form entry - test system: Mu-type opioid receptor (Rattus norvegicus, UniProt P33535); read-out: log10 of EC50; molecule: "Cc1cc(O)cc(C)c1C[C@H](N)C(=O)N[C@@H]1CCN(C(=O)C2CCC2)c2ccc(Cc3ccccc3)cc21"
0.32

---

- target.entity: Mu-type opioid receptor (Rattus norvegicus)
- assay.text: Agonist activity at rat MOR transfected in rat C6 cell membranes at 10 uM after 1 hr by [35S]GTPgammaS assay relative to DAMGO
- Type: functional
Reported Emax values follow for various molecules
Give a bare numeral; the unit % is implied.

compound: CCC(=O)N1CC[C@@H](NC(=O)[C@@H](N)Cc2c(C)cc(O)cc2C)c2cc(Cc3ccc4ccccc4c3)ccc21
Emax, %: 75

Recorded Emax for "Cc1cc(O)cc(C)c1C[C@H](N)C(=O)N[C@@H]1CCN(CC(=O)O)c2ccc(Cc3ccccc3)cc21" , please?
87

Recorded Emax for "CCCC(=O)N1CC[C@@H](NC(=O)[C@@H](N)Cc2c(C)cc(O)cc2C)c2cc(Cc3ccc4ccccc4c3)ccc21" , please?
92

Recorded Emax for "Cc1cc(O)cc(C)c1C[C@H](N)C(=O)N[C@@H]1CCN(CC(N)=O)c2ccc(Cc3ccccc3)cc21" , please?
99

---

- target.entity: Kappa-type opioid receptor (Homo sapiens, UniProt P41145)
- Sequence (P41145 whole entry): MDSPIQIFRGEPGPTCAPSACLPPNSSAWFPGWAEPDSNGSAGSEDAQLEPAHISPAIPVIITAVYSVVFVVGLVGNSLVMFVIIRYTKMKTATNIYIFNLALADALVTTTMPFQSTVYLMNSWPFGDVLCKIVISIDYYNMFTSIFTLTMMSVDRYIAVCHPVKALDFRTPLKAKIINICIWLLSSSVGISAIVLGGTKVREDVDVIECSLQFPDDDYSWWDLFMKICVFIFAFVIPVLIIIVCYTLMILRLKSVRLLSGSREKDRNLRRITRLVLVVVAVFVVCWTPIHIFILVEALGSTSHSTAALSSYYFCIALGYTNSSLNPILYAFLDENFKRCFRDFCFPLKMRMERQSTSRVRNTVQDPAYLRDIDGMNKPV
- assay.text: Agonist activity at human KOR expressed in CHO cell membranes after 1 hr by [35S]GTPgammaS assay
- Type: functional
- condition.notes: read-out: EC50
quantity.name: EC50

compound: CCCC(=O)N1CC[C@@H](NC(=O)[C@@H](N)Cc2c(C)cc(O)cc2C)c2cc(Cc3ccccc3)ccc21
target.entity: Kappa-type opioid receptor (Homo sapiens, UniProt P41145)
EC50: > 1200 nM

compound: Cc1cc(O)cc(C)c1C[C@H](N)C(=O)N[C@@H]1CCN(CC(N)=O)c2ccc(Cc3ccccc3)cc21
target.entity: Kappa-type opioid receptor (Homo sapiens, UniProt P41145)
EC50: 380 nM

compound: CCC(=O)N1CC[C@@H](NC(=O)[C@@H](N)Cc2c(C)cc(O)cc2C)c2cc(Cc3ccc4ccccc4c3)ccc21
target.entity: Kappa-type opioid receptor (Homo sapiens, UniProt P41145)
EC50: > 1400 nM

From here, focus on the item given below.
Recorded EC50 for "CCOC(=O)CN1CC[C@@H](NC(=O)[C@@H](N)Cc2c(C)cc(O)cc2C)c2cc(Cc3ccccc3)ccc21" , please?
> 1300 nM

---

- target.entity: Mu-type opioid receptor (Rattus norvegicus, UniProt P33535)
- assay.text: Agonist activity at rat MOR transfected in rat C6 cell membranes after 1 hr by [35S]GTPgammaS assay
quantity.name: pEC50
Recall that pEC50 is obtained by taking minus log10 of the concentration measured in molar.

compound: COC(=O)N1CC[C@@H](NC(=O)[C@@H](N)Cc2c(C)cc(O)cc2C)c2cc(Cc3ccccc3)ccc21
pEC50: 9.11

compound: CCCC(=O)N1CC[C@@H](NC(=O)[C@@H](N)Cc2c(C)cc(O)cc2C)c2cc(Cc3ccccc3)ccc21
pEC50: 8.46

compound: CCCC(=O)N1CC[C@@H](NC(=O)[C@@H](N)Cc2c(C)cc(O)cc2C)c2cc(Cc3ccc4ccccc4c3)ccc21
pEC50: 9.05

Recorded pEC50 for "Cc1cc(O)cc(C)c1C[C@H](N)C(=O)N[C@@H]1CCN(CC(=O)O)c2ccc(Cc3ccccc3)cc21" , please?
7.11

Recorded pEC50 for "COCC(=O)N1CC[C@@H](NC(=O)[C@@H](N)Cc2c(C)cc(O)cc2C)c2cc(Cc3ccccc3)ccc21" , please?
8.52

Recorded pEC50 for "Cc1cc(O)cc(C)c1C[C@H](N)C(=O)N[C@@H]1CCN(C(=O)C2CC2)c2ccc(Cc3ccccc3)cc21" , please?
8.74

Recorded pEC50 for "CCC(=O)N1CC[C@@H](NC(=O)[C@@H](N)Cc2c(C)cc(O)cc2C)c2cc(Cc3ccc4ccccc4c3)ccc21" , please?
7.89
